For each entry below, report its %Inh value.
Tested on: BTK
Details: concentration: 1 μM, replicates: in singlicate; n = 1;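 also: KINOMEscan kinase panel screen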
Return type: number; implicit unit %.

Query: Provide BTK %Inh reading for CS(=O)(=O)c1ccc(-c2nc3n(c2-c2ccncc2)CCC3)cc1 .
Reply: 0

Query: Write %Inh of COc1ccc(Nc2nccc(NCCNC(=O)Nc3ccccc3F)n2)cc1 ; system used: BTK
Reply: 0

Query: Provide %Inh, recorded with BTK, of Nc1nc(-c2nccs2)c(-c2ccnc3ccccc23)s1
Reply: 0

Query: Enter measured %Inh, system BTK, for the compound shown: O=c1cc(N2CCOCC2)nc2n(Cc3cccc(Cl)c3Cl)ccn12
Reply: 0

Query: // fetch %Inh; item: COc1ccccc1-c1ccc2c(NC(=O)C3CC3)n[nH]c2n1 ; system: BTK
Reply: 32

Query: Give the observed %Inh of O=C(Nc1n[nH]c2cc(-c3cccc(F)c3F)ccc12)C1CC1 for BTK.
Reply: 0

* * *

System: ABL1-nonphosphorylated
Details: concentration: 1 μM, replicates: in singlicate; n = 1
MEASURED METRIC: %Inh (%)
Respond numerically; units are % and should not be typed.

Query: Return the recorded %Inh value; entry: Cc1cccc(-c2nc(Nc3ccncc3)c3ccccc3n2)n1
Reply: 39

Query: Give the reported value of %Inh for this record: CN(C)CCN(C)C(=O)c1cc(-c2ccncc2)c(-c2ccc(Cl)c(O)c2)o1.Cl.Cl
Reply: 2

Query: Note down %Inh recorded for Cn1ccc2ncnc(Oc3ccc(NC(=O)Nc4ccccc4)cc3)c21
Reply: 26

Query: # return recorded %Inh for entry Nc1nc(-c2nccs2)c(-c2ccnc3ccccc23)s1
Reply: 0

* * *

System: CDK2
Conditions: concentration: 1 μM, replicates: in singlicate; n = 1
MEASURED METRIC: %Inh (%)
Write it as a number; the unit % goes unstated.

Query: Query %Inh for COc1ccc(CNC(=O)NC2CCN(c3ccnc(Nc4cc(OC)c(OC)c(OC)c4)n3)C2)cc1 (stereo not drawn)
Reply: 0

Query: Give the measured %Inh for NC(=O)c1nnc2ccccc2c1N
Reply: 6

Query: Report %Inh for COc1cc(Nc2nccc(N3CCC(NC(=O)Nc4cc(C)ccc4C)C3)n2)cc(OC)c1OC (stereo not drawn)
Reply: 0

Query: Supply recorded %Inh for Cc1cccc(-c2nc(-c3ccc(S(C)(=O)=O)cc3)sc2-c2ccnc(NCCc3ccccc3)c2)c1 here.
Reply: 0

Query: Look up %Inh of Cc1cccc(-c2nc(Nc3ccc4[nH]ncc4c3)c3ccccc3n2)n1 and report it.
Reply: 0

Query: Give me measured %Inh, please, for this compound: Nc1ncnc2[nH]c(-c3ccccc3)nc12
Reply: 0

Query: Quick one: give measured %Inh for CCCc1ccc(S(=O)(=O)NC2CCN(c3ccnc(Nc4ccc(F)cc4)n3)C2)cc1 (stereo not drawn)
Reply: 0

Query: Kindly indicate its recorded %Inh. Item: Cn1cncc1-c1ccc2ncnc(Nc3ccc(OCc4ccccc4)cc3)c2c1
Reply: 4

Query: Report measured %Inh; entry is Cn1ccc2ncnc(Oc3cccc(C(=O)Nc4ccccc4)c3)c21
Reply: 6

Query: Please give the documented %Inh of CC1=C(C(=O)Nc2cc3cn[nH]c3cc2F)C(c2ccc(C(F)(F)F)cc2)CC(=O)N1 (stereo not drawn)
Reply: 0

Query: Give recorded %Inh. Cc1cccc(-c2nc(Nc3ccncc3)c3ccccc3n2)n1
Reply: 0

Query: # return recorded %Inh for input O=C(Nc1n[nH]c2nc(-c3nccs3)c(Br)cc12)C1CCCC1
Reply: 86
